- Tested on: in vivo angiogenesis, blood vessel count
- protocol_description: reduction of blood vessel formation in vivo – HTS, in vivo study (AID 732);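 also: zebrafish embryos dosed at one day post fertilization; 0% = reference inhibitor and 100% = plate mean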
- reported_conditions: active compounds read low;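 tested at 30 µM in the well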
measure_name: vessel count % control (%)
Write the answer as a number in %, unit excluded.

COc1cc(C(O)C(=O)O)ccc1O (stereo not drawn)	92.5
CC(C)(C)c1onc(OCP(=O)(O)O)c1CC(N)C(=O)O (stereo not drawn)	88.9

What does the data say about its vessel count % control? Entry: O=C(O)c1cccnc1C(=O)O
88.1

###

- System: in vivo angiogenesis, blood vessel count
- protocol_description: reduction of blood vessel formation in vivo – HTS, in vivo study (AID 732);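 also: zebrafish embryos dosed at one day post fertilization; 0% = reference inhibitor and 100% = plate mean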
- reported_conditions: active compounds read low;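 tested at 30 µM in the well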
measure_name: vessel count % control (%)
Write the answer as a number in %, unit excluded.

What does the data say about its vessel count % control? Entry: N[C@@H](Cc1ccc(O)c(I)c1)C(=O)O
108

What does the data say about its vessel count % control? Entry: CCN(CC)C(=O)c1ccc(O)c(OC)c1
96.8

What does the data say about its vessel count % control? Entry: CN1CCc2cccc(Cl)c2CC1
93.2

What does the data say about its vessel count % control? Entry: Nc1cc(=O)[nH]c(N)n1
119
